Tested on: RAW264.7 cell line
Experiment: Cytokine inhibition ability: LPS-induced cytokine gene expression in RAW264.7 macrophages
Format: cell-based, mouse
Details: grade of reduction rate of gene expression, peptide 100 nM, LPS 200 ng/mL, 6 hours
Peptide text beside a SMILES is read from it.

compound	Cytokine inhibition ability TNFα
CCCCCCCC(=O)N[C@@H](CCCNC(=N)N)C(=O)N[C@@H](CCSC)C(=O)N[C@@H](CCCNC(=N)N)C(=O)N[C@@H](Cc1ccc(O)cc1)C(=O)N[C@@H](Cc1c[nH]c2ccccc12)C(=O)N[C@@H](Cc1ccc(O)cc1)C(=O)N[C@H](CCSC)C(N)=O [Peptide 84] (HELM PEPTIDE1{[CCCCCCCC(=O)[*:2]].R.M.R.Y.W.Y.[dM].[am]}$$$$V2.0)	A (81%-100%)
CSCC[C@H](NC(=O)[C@H](CCCNC(=N)N)NC(C)=O)C(=O)N[C@@H](CCCNC(=N)N)C(=O)N[C@@H](Cc1ccc(O)cc1)C(=O)N[C@@H](Cc1c[nH]c2ccccc12)C(=O)N[C@@H](Cc1ccc(O)cc1)C(=O)N[C@H](CCSC)C(N)=O [Peptide 82] (HELM PEPTIDE1{[ac].R.M.R.Y.W.Y.[dM].[am]}$$$$V2.0)	A (81%-100%)
